Test system: P. falciparum D6
experiment_summary: Malaria SYBR Green Fluorescence Assay, D6 strain
Format: cell-based, Plasmodium falciparum
condition_summary: Plasmodium falciparum, SYBR Green Assay
recorded_metric: IC50
Please make sure the unit comes right after the number.

{"columns": ["compound", "assayed_system", "IC50"],
 "data": [
  ["CC(=O)N1CCN(c2nc(-c3ccc(Cl)c(Cl)c3)nc(C(Cl)(Cl)Cl)n2)CC1", "P. falciparum D6", "0.687 µg/mL"],
  ["FC(F)(F)c1cccc(-c2nc(N3CC4CC3CN4)nc(C(Cl)(Cl)Cl)n2)c1 (centres unmarked)", "P. falciparum D6", "0.106 µg/mL"],
  ["Oc1ccc(Nc2nc(NCCN3CCCC3)nc(C(Cl)(Cl)Cl)n2)cc1", "P. falciparum D6", "0.144 µg/mL"],
  ["CC(CNc1nc(-c2ccc(Cl)c(Cl)c2)nc(C(Cl)(Cl)Cl)n1)N(C)C (centres unmarked)", "P. falciparum D6", "0.0416 µg/mL"]
]}

Here is the next item to consider.
Q) GET /values?readout=IC50&item= "NC1CCN(c2nc(-c3ccc(F)cc3)nc(C(Cl)(Cl)Cl)n2)CC1"
A) 0.137 µg/mL

----------
System: P. berghei
experiment_summary: Thompson Test, in vivo mouse malaria assay
Set-up: species or system mice (ICR strain)
condition_summary: (40 × 3): 40 mg/kg for 3 days
Would you mind telling me the reported In vivo Results Thompson Assay (n/N Cures or Suppressive) of each entry?

Provide reported In vivo Results Thompson Assay (n/N Cures or Suppressive) for each item, in the same order as listed.
1. CC(C)(N)CNc1nc(-c2cc(Cl)cc(Cl)c2)nc(C(Cl)(Cl)Cl)n1
2. OCCN1CCN(c2nc(-c3ccc(C(Cl)(Cl)Cl)cc3)nc(C(Cl)(Cl)Cl)n2)CC1
3. CC1(C)CC(Nc2nc(-c3ccccc3)nc(C(Cl)(Cl)Cl)n2)CC(C)(C)N1
4. CC(C)(N)CNc1nc(-c2cccc(C(F)(F)F)c2)nc(C(Cl)(Cl)Cl)n1
5. CC(C)(N)CNc1nc(-c2ccc(C(Cl)(Cl)Cl)cc2)nc(C(Cl)(Cl)Cl)n1

A)
1: 2/5; 2: 1/5; 3: 1/5; 4: 2/5; 5: 3/5

----------
Tested on: P. falciparum W2
experiment_summary: Malaria SYBR Green Fluorescence Assay, W2 strain
Format: cell-based, Plasmodium falciparum
condition_summary: SYBR Green Assay
recorded_metric: W2 (ng/mL)
Answers are plain numbers, in ng/mL.

{"columns": ["compound", "unit", "W2"],
 "data": [
  ["CSc1ccc(-c2nc(NCCC3CCCN3C)nc(C(Cl)(Cl)Cl)n2)cc1 (stereo not drawn)", "ng/mL", 91]
]}

Provide reported W2 for each item, in the same order as listed.
1. COc1ccc(Nc2nc(NC3CCN(C)CC3)nc(C(Cl)(Cl)Cl)n2)cn1
2. CCN1CCC(CNc2nc(-c3cccc(OC)c3)nc(C(Cl)(Cl)Cl)n2)CC1

A)
1. 129
2. 29

----------
Would you mind telling me the reported IC50 of each entry?
Test system: P. falciparum C235
experiment_summary: Malaria SYBR Green Fluorescence Assay, C235 strain
Assay type: cell-based, Plasmodium falciparum
condition_summary: Plasmodium falciparum, SYBR Green Assay
Give bare numbers, in µg/mL.

{"columns": ["compound", "recorded_metric", "unit", "result"],
 "data": [
  ["FC(F)(F)c1cccc(-c2nc(N3CC4CC3CN4)nc(C(Cl)(Cl)Cl)n2)c1 (centres unmarked) [Ex. 7]", "IC50", "µg/mL", 0.192],
  ["CC(=O)N1CCN(c2nc(-c3ccc(Cl)c(Cl)c3)nc(C(Cl)(Cl)Cl)n2)CC1 [Example 3]", "IC50", "µg/mL", 0.535],
  ["CC(CNc1nc(-c2ccc(Cl)c(Cl)c2)nc(C(Cl)(Cl)Cl)n1)N(C)C (centres unmarked) [Example 1]", "IC50", "µg/mL", 0.0367],
  ["Oc1ccc(Nc2nc(NCCN3CCCC3)nc(C(Cl)(Cl)Cl)n2)cc1 [Compound 745]", "IC50", "µg/mL", 0.389]
]}

Q) GET /values?readout=IC50&item= NC1CCN(c2nc(-c3ccc(F)cc3)nc(C(Cl)(Cl)Cl)n2)CC1 [Example 2]
A) 0.15

----------
System: P. falciparum W2
experiment_summary: Malaria SYBR Green Fluorescence Assay, W2 strain
Format: cell-based, Plasmodium falciparum
condition_summary: SYBR Green Assay
recorded_metric: W2

The following substances have reported results that may help.
{"columns": ["substance", "W2"],
 "data": [
  ["FC(F)(F)OC1═CC═C(NC2═NC(═NC(NCCCN3CCCC3)═N2)C(Cl)(Cl)Cl)C═C1 [Compound 657]", "390 ng/mL"],
  ["COC1═C(OC)C═C(C═C1)C1═NC(NC2CCN(CC(C)C)CC2)═NC(═N1)C(Cl)(Cl)Cl [Compound 702]", "179 ng/mL"],
  ["CC(C)CN1CCC(CC1)NC1═NC(═NC(═N1)C(Cl)(Cl)Cl)C1═CC═C(Cl)C(Cl)═C1 [Compound 692]", "24 ng/mL"],
  ["COC1═C(OC)C═C(C═C1)C1═NC(NCC2(N)CCCCC2)═NC(═N1)C(Cl)(Cl)Cl [Compound 669]", "10 ng/mL"]
]}

Provide reported W2 for each item, in the same order as listed.
1. NC1(CNC2═NC(═NC(═N2)C2═CC(Cl)═CC(Cl)═C2)C(Cl)(Cl)Cl)CC1 [Compound 683]
2. CC(C)CN1CCC(CC1)NC1═NC(═NC(═N1)C1═CC═CC═C1)C(Cl)(Cl)Cl [Compound 704]
3. CN1CCN(CC1)c2ccc(Nc3nc(nc(n3)C(Cl)(Cl)Cl)C(Cl)(Cl)Cl)cc2 [Compound 731]
4. CC(C)(C)c1ccc(cc1)c2nc(NCC(C)(C)CN3CCCCCC3)nc(n2)C(Cl)(Cl)Cl [Compound 737]
5. CC(C)CN1CCC(CC1)NC1═NC(═NC(═N1)C(Cl)(Cl)Cl)C1═C(C═CC═C1)[N+]([O−])═O [Compound 684]
6. FC(F)(F)OC1═CC═C(NC2═NC(═NC(═N2)N2CCCNCC2)C(Cl)(Cl)Cl)C═C1 [Compound 659]
7. NC1(CNC2═NC(═NC(═N2)C2═CC═C(C═C2)C(Cl)(Cl)Cl)C(Cl)(Cl)Cl)CCCCC1 [Compound 666]
8. NC1(CNC2═NC(═NC(═N2)C2═CC═C(C═C2)C2═CC═CC═C2)C(Cl)(Cl)Cl)CCCC1 [Compound 672]

A)
1. 503 ng/mL
2. 223 ng/mL
3. 165 ng/mL
4. 101.3 ng/mL
5. 66 ng/mL
6. 18 ng/mL
7. 2 ng/mL
8. 30 ng/mL

Provide reported W2 for each item, in the same order as listed.
1. NC1(CNC2═NC(═NC(═N2)C2═CC(Cl)═CC═C2)C(Cl)(Cl)Cl)CC1 [Compound 680]
2. CC(C)CN1CCC(CC1)NC1═NC(═NC(═N1)C1═CC═C(C═C1)C1═CC═CC═C1)C(Cl)(Cl)Cl [Compound 699]

A)
1. 35 ng/mL
2. 430 ng/mL

----------
Would you mind telling me the reported log10 W2 of each entry?
Test system: P. falciparum W2
experiment_summary: Malaria SYBR Green Fluorescence Assay, W2 strain
Format: cell-based, Plasmodium falciparum
condition_summary: SYBR Green Assay
Note: values are log10 of W2 expressed in ng/mL.

The following compounds have reported results that may help.
{"columns": ["compound", "result"],
 "data": [
  ["NC1(CNc2nc(Nc3ccc(OC(F)(F)F)cc3)nc(C(Cl)(Cl)Cl)n2)CCOCC1 [Cmpd 303]", 1.79],
  ["CC(=O)Nc1cccc(Nc2nc(C(Cl)(Cl)Cl)nc(C(Cl)(Cl)Cl)n2)c1 [Compound 727]", 2.12],
  ["ClC(Cl)(Cl)c1nc(Nc2ccncc2)nc(-c2ccc3ccccc3c2)n1 [Compound 235]", 0.90]
]}

Provide reported log10 W2 for each item, in the same order as listed.
1. COc1ncccc1Nc1nc(NCCC2CCCN2C)nc(C(Cl)(Cl)Cl)n1 (centres unmarked) [Cmpd 346]
2. CCN1CCC(CNc2nc(-c3cccc(Cl)c3)nc(C(Cl)(Cl)Cl)n2)CC1 [Cmpd 339]

A)
1.72
1.15

Provide reported log10 W2 for each item, in the same order as listed.
1. CSc1ccc(-c2nc(NCC3(N)CCCCC3)nc(C(Cl)(Cl)Cl)n2)cc1 [Compound 664]
2. CC(C)(C)c1ccc(-c2nc(N3CCNCC3)nc(C(Cl)(Cl)Cl)n2)cc1 [Cmpd 161]
3. CC(C)(N)CNc1nc(-c2ccc(C(Cl)(Cl)Cl)cc2)nc(C(Cl)(Cl)Cl)n1 [Compound 55]

A)
1: 1.32; 2: 1.51; 3: 1.48

----------
System: P. berghei
experiment_summary: Thompson Test, in vivo mouse malaria assay
Set-up: species or system mice (ICR strain)
condition_summary: (160 × 3): 160 mg/kg for 3 days
Would you mind telling me the reported In vivo Results Thompson Assay (n/N Cures or Suppressive) of each entry?

The following compounds have reported results that may help.
{"columns": ["compound", "result"],
 "data": [
  ["FC(F)(F)c1cccc(-c2nc(N3CC4CC3CN4)nc(C(Cl)(Cl)Cl)n2)c1 (centres unmarked) [Ex. 7]", "4/5"],
  ["CN1CCCN(c2nc(-c3ccc(Cl)c(Cl)c3)nc(C(Cl)(Cl)Cl)n2)CC1 [Compound 113]", "4/5"]
]}

Here is the next item to consider.
Q) GET /values?readout=In vivo Results Thompson Assay (n/N Cures or Suppressive)&item= ClC(Cl)(Cl)c1ccc(-c2nc(NCCN3CCCC3)nc(C(Cl)(Cl)Cl)n2)cc1 [Compound 57]
A) 5/5
